Molecular target: Trace amine-associated receptor 1 (Homo sapiens)
Assay: blockers of beta-PEA-driven TAAR1 calcium signal – Fluo-8 calcium fluorescence, CHO RD-HGA16 cells, primary screen (AID 624466);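 further: 0% = DMSO plus EC80 beta-PEA response and 100% = DMSO alone without agonist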
Settings: CHO RD-HGA16 TAAR1, Fluo-8 calcium fluorescence, antagonist; at 3 µM; hits give high values
The campaign covered roughly 360,000 compounds. About 5,400 (1.5%) were called active. This is one part of a sample in which actives are shown more often than they occur.
measure name: inhibition

Example compounds with recorded inhibition:
compound | inhibition
CCCC(CNC(=O)COC(=O)C1=NNC(=O)CC1)c1ccc(Cl)cc1Cl (stereo not given) | -3.84% (inactive)
Cc1cc2c(cc1S(=O)(=O)CCC(=O)NCc1ccccc1)OCC(=O)N2 | 8.55% (inactive)
CC(=O)N1CCCc2cc(S(=O)(=O)N3CCCC(C(=O)N4CCN(c5cccc(Cl)c5)CC4)C3)ccc21 (stereo not given) | 83.6% (active)
COC(=O)[C@]12C[C@H](CC(=O)NCc3ccccc3)C(=O)N(CCC3=CCCCC3)C1=C[C@H](C(C)(C)C)O[C@@H]2C | -44.8% (inactive)
O=C1Nc2c(Br)cc(Br)cc2C1(O)N1CCOCC1 (stereo not given) | 1.94% (inactive)

Tell me reported inhibition for C=CCCN(Cc1ccccc1)S(=O)(=O)c1ccccc1Br , tested with Trace amine-associated receptor 1 (Homo sapiens). 35.3% (inactive)
